B1: VPS39 (parent)
chain: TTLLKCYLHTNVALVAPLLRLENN

variants of: B1; test: protein stability index of a GFP-peptide fusion (GPS, HEK-293T) (PSI 1-6); higher = more stable; details: c terminus: a fixed tail appended;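 further: lentivirally expressed fusions sorted by FACS into six bins by GFP to DsRed ratio, PSI derived from sequencing read proportions per bin multiplied by bin number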
PARAMETER: protein stability index
No unit in the answer, only the number.

In the examples that follow, each entry is paired with its recorded protein stability index.
variant_notation=T10L assay_value=2.35
variant_notation=L3Q assay_value=3.31
variant_notation=L19H assay_value=1.7
variant_notation=L21P assay_value=2.73
variant_notation=V12Q assay_value=1.95
variant_notation=N23I assay_value=2.67
variant_notation=N23C assay_value=2.8
variant_notation=T10H assay_value=2.79

Now, please, on to the next variant.
Task item: So what does the record say about protein stability index for V15R ?
Reply: 1.85
